meta.source: paper PMC10958042

B1: ATGL (PNPLA2, patatin-like phospholipase domain-containing protein 2), human, full length / CIDEC (FSP27), human (parent)
chain 1: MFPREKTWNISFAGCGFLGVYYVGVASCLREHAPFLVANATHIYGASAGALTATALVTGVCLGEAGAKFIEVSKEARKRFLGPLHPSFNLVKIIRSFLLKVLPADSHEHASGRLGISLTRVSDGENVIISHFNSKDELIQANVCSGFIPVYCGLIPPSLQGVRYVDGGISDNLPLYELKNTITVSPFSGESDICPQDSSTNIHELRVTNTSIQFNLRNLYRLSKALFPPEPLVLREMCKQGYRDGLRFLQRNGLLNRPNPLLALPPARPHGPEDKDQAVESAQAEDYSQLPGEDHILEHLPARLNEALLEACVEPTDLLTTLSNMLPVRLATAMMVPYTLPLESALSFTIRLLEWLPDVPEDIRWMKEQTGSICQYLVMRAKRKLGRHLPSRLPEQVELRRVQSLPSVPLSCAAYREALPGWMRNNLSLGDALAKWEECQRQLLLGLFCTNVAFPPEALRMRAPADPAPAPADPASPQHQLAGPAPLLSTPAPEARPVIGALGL
chain 2: MEYAMKSLSLLYPKSLSRHVSVRTSVVTQQLLSEPSPKAPRARPCRVSTADRSVRKGIMAYSLEDLLLKVRDTLMLADKPFFLVLEEDGTTVETEEYFQALAGDTVFMVLQKGQKWQPPSEQGTRHPLSLSHKPAKKIDVARVTFDLYKLNPQDFIGCLNVKATFYDTYSLSYDLHCCGAKRIMKEAFRWALFSMQATGHVLLGTSCYLQQLLDATEEGQPPKGKASSLIPTCLKILQ

Variants of: B1
Assay: LUMIER: Protein A-ATGL variant and firefly luciferase-partner co-expressed in HEK293T, lysates immunoprecipitated on IgG-coated plates, co-precipitated partner measured as luciferase luminescence
Details: with CIDEC (FSP27), transient co-transfection, IgG-coated LUMITRAC plates, 2 h at 4 °C, three PBS washes, Bright-Glo luciferase reagent, triplicates per assay, two …, parent: 0.24, not graded, scale: log2 fold change of co-immunoprecipitated luminescence relative to wild-type ATGL within each experiment
REPORTED_PROPERTY: screen value
API note: the answer field is a bare number with no unit suffix.

Some variants with recorded screen value:
variant_annotation="chain 1 V127L" reported_property="screen value" endpoint_result=-0.0792
variant_annotation="chain 1 R329E" reported_property="screen value" endpoint_result=-0.13
variant_annotation="chain 1 L159A" reported_property="screen value" endpoint_result=0.00161
variant_annotation="chain 1 N39E" reported_property="screen value" endpoint_result=-0.0276

What value of screen value has been recorded for this entry: chain 1 I70A
-0.628

Next variant up: chain 1 R163K
0.0551

Next variant up: chain 1 N180L
-0.574

Next variant up: chain 1 L62A
-0.17

Next variant up: chain 1 E125L
-0.238

Next variant up: chain 1 Q396A
-0.182

Next variant up: chain 1 I70K
-0.623

Next variant up: chain 1 G66L
-0.656

Next variant up: chain 1 G189E
-0.896

Next variant up: chain 1 F35A
-0.0902

Next variant up: chain 1 G16K
0.954

Next variant up: chain 1 P86K
-0.642

Next variant up: chain 1 G153A
0.00164

Next variant up: chain 1 P156K
-0.374

Next variant up: chain 1 S87E
-0.728

Next variant up: chain 1 G153K
-0.174

Next variant up: chain 1 A104E
-0.317

Next variant up: chain 1 R95K
-0.656

Next variant up: chain 1 T41A
-0.176

Next variant up: chain 1 A453E
0.847

Next variant up: chain 1 S158E
-0.238

Next variant up: chain 1 R113K
0.829

Next variant up: chain 1 L102K
-0.319

Next variant up: chain 1 R351L
-0.407
